src = the supplement of paper PMC10567573

What protein stability index was measured for each of the following?
B1: BCL2L13 (parent)
chain: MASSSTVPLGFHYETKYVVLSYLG

# Variants of: B1
# measurement.notes: protein stability index of a GFP-peptide fusion (GPS, HEK-293T) (PSI 1-6); higher = more stable;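 further: lentivirally expressed fusions sorted by FACS into six bins by GFP to DsRed ratio, PSI derived from sequencing read proportions per bin multiplied by bin number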
# test.parameters: c terminus: a fixed tail appended
Numbers only.

- Y17K: 2.1
- S4H: 2.24
- P8I: 2.73
- G10H: 3.03
- T6H: 3.22
- T15S: 1.11
- F11C: 2.63
- F11P: 2.33

# batch size: 7; output protein stability index per entry
1. A2K
2. A2F
3. L20E
4. P8K
5. V18I
6. A2Q
7. V19G

(A)
[2.38, 3.22, 1.78, 3.91, 2.81, 2.37, 2.09]

# batch size: 5; output protein stability index per entry
1. T6I
2. Y22R
3. M1P
4. S3Y
5. S5F

(A)
1: 2.35; 2: 1.69; 3: 2.72; 4: 2.64; 5: 2.55

# batch size: 7; output protein stability index per entry
1. V18M
2. Y22A
3. L20T
4. E14G
5. L20R
6. T15P
7. P8A

(A)
1: 2.55; 2: 1.89; 3: 2.17; 4: 2.09; 5: 1.48; 6: 2.06; 7: 2.97

# batch size: 2; output protein stability index per entry
1. V18S
2. Y13E

(A)
1.79
1.59
